Cited source: patent US12302928B2

Test system: grass carps
protocol-summary: Breeding test B4: use in fish feed (growth of grass carps)
Format: in vivo
applied-conditions: 150 ppm in basal feed, 8 weeks
Description: The test fishes used were grass carps, and the test was carried out in the aquaculture farm of the test field of Guangzhou Insighter. Healthy, lively, and uniform grass carp fingerlings were fed in large cages for 4 weeks before being used for formal breeding test. The experimental system was a small floating cage. […]
Exercise: state measured Average final weight for each of the compounds provided.
# value in g; strip the unit string

-- ask Please look up its Average final weight: O=C(O)CCCNC(=O)c1ccc(O)cc1 [N-p-hydroxybenzoyl-γ-aminobutyric acid]
-- reply 710

-- ask Fill in the blank: the reported Average final weight of NCCCC(=O)NCCCC(=O)O is ____.
-- reply 707

-- ask Requested read-out: Average final weight. Entry: Cc1ccc(C(=O)NCCCC(=O)O)cc1
-- reply 739

-- ask I would be grateful if you could share the reported Average final weight for CC(=O)NCCCC(=O)O .
-- reply 733

-- ask # get_value(readout='Average final weight', item= O=C(O)CCCNC(=O)c1ccc(Cl)cc1 )
-- reply 730

-- ask Requested read-out: Average final weight. Entry: Nc1ccc(C(=O)NCCCC(=O)O)cc1
-- reply 713

-- ask Consider the compound shown here: NCC(=O)NCCCC(=O)O What is its recorded Average final weight?
-- reply 755

-- ask For the compound O=C(O)CCCNC(=O)c1ccccc1 , what Average final weight is on record?
-- reply 721

----------
Test system: Jingbai laying hens
protocol-summary: Breeding test B2: effect on the production performance of laying hens
Assay type: in vivo
applied-conditions: 150 ppm in basal daily ration, 158 days, 147-day-old laying hens
Exercise: for every item that follows, state its recorded EPR (egg production rate).
State the answer as a number, implicitly in %.

-- ask What value of EPR (egg production rate) has been reported for the following compound? NCCCC(=O)NCCCC(=O)O [N-(γ-aminobutyryl)-γ-aminobutyric acid]
-- reply 84.4

-- ask Tell me the measured EPR (egg production rate) of NCC(=O)NCCCC(=O)O [N-glycyl-γ-aminobutyric acid] , please.
-- reply 82.9

-- ask Which EPR (egg production rate) reading was recorded for the compound O=C(O)CCCNC(=O)c1ccc(O)cc1 [N-p-hydroxybenzoyl-γ-aminobutyric acid] ?
-- reply 81.8

-- ask // EPR (egg production rate) lookup, key: Cc1ccc(C(=O)NCCCC(=O)O)cc1 [N-p-methylbenzoyl-γ-aminobutyric acid]
-- reply 84.4

-- ask What value of measured EPR (egg production rate) is listed for O=C(O)CCCNC(=O)c1ccc(Cl)cc1 [N-p-chlorobenzoyl-γ-aminobutyric acid] ?
-- reply 81.4

-- ask I'd like to know its EPR (egg production rate). The compound in question is CC(=O)NCCCC(=O)O [N-acetyl-γ-aminobutyric acid]
-- reply 82.2

-- ask Quick check: EPR (egg production rate) of Nc1ccc(C(=O)NCCCC(=O)O)cc1 [N-p-aminobenzoyl-γ-aminobutyric acid] ?
-- reply 82.6

-- ask Consider the compound shown here: O=C(O)CCCNC(=O)c1ccccc1 [N-benzoyl-γ-aminobutyric acid] What is its recorded EPR (egg production rate)?
-- reply 86.7

----------
Test system: Jingbai laying hens
protocol-summary: Breeding test B2: effect on the production performance of laying hens
Format: in vivo
applied-conditions: 150 ppm in basal daily ration, 158 days
readout-type: EW (egg weight) (g)
Field format: number, assumed g, no unit text.

-- ask Query (compound): Cc1ccc(C(=O)NCCCC(=O)O)cc1 ; field requested: EW (egg weight)
-- reply 54.81

-- ask # get_value(readout='EW (egg weight)', item= O=C(O)CCCNC(=O)c1ccccc1 )
-- reply 54.92

-- ask What value of measured EW (egg weight) is listed for O=C(O)CCCNC(=O)c1ccc(Cl)cc1 ?
-- reply 55.07
